- ASSAY_TARGET: Angiotensin-converting enzyme (Homo sapiens)
- PROTOCOL_TEXT: Inhibition of ACE (unknown origin)
- Parameters: unit not given here
Residues, ends and D or L forms follow the SMILES beside them.
Listed next: entries and their corresponding logIC50.
OBSERVABLE: logIC50

- CC[C@H](C)[C@H](N)C(=O)N[C@@H](Cc1ccc(O)cc1)C(=O)O (H-Ile-Tyr-OH): 0.79
- CC(C)C[C@H](N)C(=O)N[C@@H](C)C(=O)N1CCC[C@H]1C(=O)O (H-Leu-Ala-Pro-OH): 0.54
- NCCCC[C@H](N)C(=O)N[C@@H](Cc1ccccc1)C(=O)O: 1.45
- NC(N)=NCCC[C@H](N)C(=O)N[C@@H](Cc1c[nH]c2ccccc12)C(=O)O (H-Arg-Trp-OH): 1.2
- CC[C@H](C)[C@H](N)C(=O)N[C@@H](C)C(=O)N1CCC[C@H]1C(=O)O (H-Ile-Ala-Pro-OH): 0.43
- NC(N)=NCCC[C@H](N)C(=O)N1CCC[C@H]1C(=O)O (H-Arg-Pro-OH): 1.32
- CC(C)[C@H](NC(=O)[C@@H](N)Cc1ccccc1)C(=O)N[C@@H](C)C(=O)N1CCC[C@H]1C(=O)O (H-FVAP-OH): 1
- CC(C)[C@H](N)C(=O)N[C@@H](Cc1ccc(O)cc1)C(=O)O (H-Val-Tyr-OH): 1.2
- CC(C)C[C@H](N)C(=O)N[C@@H](Cc1ccc(O)cc1)C(=O)N1CCC[C@H]1C(=O)O (H-Leu-Tyr-Pro-OH): 0.82
- C[C@H](N)C(=O)N[C@@H](Cc1c[nH]c2ccccc12)C(=O)O (H-Ala-Trp-OH): 1.08
- CSCC[C@H](NC(=O)[C@@H](N)C(C)C)C(=O)N1CCC[C@H]1C(=O)O (H-Val-Met-Pro-OH): 1.46
- NCC(=O)N[C@@H](Cc1ccc(O)cc1)C(=O)O (H-Gly-Tyr-OH): 2.32
- CC[C@H](C)[C@H](N)C(=O)N[C@@H](CCC(=O)O)C(=O)N1CCC[C@H]1C(=O)O (H-Ile-Glu-Pro-OH): 0.2
- CC[C@H](C)[C@H](N)C(=O)N[C@@H](CCCNC(=N)N)C(=O)N1CCC[C@H]1C(=O)O (H-Ile-Arg-Pro-OH): -0.13
- CC(C)[C@H](NC(=O)[C@H](C)N)C(=O)NCC(=O)N1CCC[C@H]1C(=O)O (H-AVGP-OH): 0.49
- CC(C)C[C@H](N)C(=O)N[C@H](C(=O)N1CCC[C@H]1C(=O)N1CCC[C@H]1C(=O)O)C(C)C (H-LVPP-OH): 2.1
- C[C@H](N)C(=O)N[C@@H](Cc1ccc(O)cc1)C(=O)O (H-Ala-Tyr-OH): 1.28
- N[C@@H](CC(=O)O)C(=O)N[C@@H](Cc1ccccc1)C(=O)O (H-Asp-Phe-OH): 2.56
- NC(=O)CC[C@H](NC(=O)[C@@H](N)Cc1ccccc1)C(=O)N1CCC[C@H]1C(=O)O (H-Phe-Gln-Pro-OH): 1.08
- CC(C)[C@H](NC(=O)[C@H](C)N)C(=O)N1CCC[C@H]1C(=O)O (H-Ala-Val-Pro-OH): 2.53
- CSCC[C@H](N)C(=O)N[C@@H](Cc1c[nH]c2ccccc12)C(=O)O (H-Met-Trp-OH): 1
- CC(C)[C@H](N)C(=O)N[C@@H](CO)C(=O)N[C@@H](CO)C(=O)N1CCC[C@H]1C(=O)O (H-VSSP-OH): 1
- N[C@@H](CO)C(=O)N1CCC[C@H]1C(=O)N[C@@H](Cc1ccc(O)cc1)C(=O)N1CCC[C@H]1C(=O)O (H-SPYP-OH): 2.93
- N[C@@H](Cc1cnc[nH]1)C(=O)N[C@@H](Cc1ccc(O)cc1)C(=O)O (H-His-Tyr-OH): 1.42
- N[C@@H](CC(=O)O)C(=O)N[C@@H](Cc1ccc(O)cc1)C(=O)O (H-Asp-Tyr-OH): 2
- C[C@@H](O)[C@H](N)C(=O)N[C@@H](Cc1ccccc1)C(=O)O (H-Thr-Phe-OH): 1.95
- CC[C@H](C)[C@H](N)C(=O)N[C@@H](CCCCN)C(=O)N1CCC[C@H]1C(=O)O (H-Ile-Lys-Pro-OH): 0.84
- C[C@H](NC(=O)[C@@H](N)Cc1ccccc1)C(=O)N1CCC[C@H]1C(=O)O (H-Phe-Ala-Pro-OH): 0.58
- CC(C)[C@H](N)C(=O)N1CCC[C@H]1C(=O)O (H-Val-Pro-OH): 2.62
- CC(C)C[C@H](N)C(=O)N[C@@H](CCC(=O)O)C(=O)N1CCC[C@H]1C(=O)O (H-Leu-Glu-Pro-OH): 0.28
- NCC(=O)N1CCC[C@H]1C(=O)O (H-Gly-Pro-OH): 2.56
- CC[C@H](C)[C@H](N)C(=O)N[C@@H](CC(C)C)C(=O)N1CCC[C@H]1C(=O)N1CCC[C@H]1C(=O)O (H-ILPP-OH): 2.24
- CC[C@H](C)[C@H](N)C(=O)N1CCC[C@H]1C(=O)O (H-Ile-Pro-OH): 2.11
